Measured target: T1, CaBdf1 BD1 (GST-tagged, wild-type) (Candida albicans (strain SC5314 / ATCC …, UniProt Q5A4W8))
T1 chain: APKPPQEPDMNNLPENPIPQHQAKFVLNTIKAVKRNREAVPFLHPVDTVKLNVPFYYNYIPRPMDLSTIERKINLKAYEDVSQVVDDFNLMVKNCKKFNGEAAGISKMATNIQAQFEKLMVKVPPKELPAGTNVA
Assay protocol: histone peptide array (Active Motif MODified), 1 uM GST-tagged bromodomain, anti-GST detection, normalized mean intensity
Square brackets hold non-standard residues; d marks the D form. Ends that are not written are not given here. pS = N[C@@H](COP(=O)(O)O)C(=O)O; Me2a = not defined here
Quantity: binding score

ARTK(Me2)QTARKSTGGKAPRKQ | 0.00181
SGRGKGGKGLGKGGAKRHR (S G R G K G G Kac G L G K G G A K R H R) [H4 1-19] | 0.0344
ARTKQTARKSTGGKAPRKQ (A R T K Q T A Rme2a Kme2 pS T G G K A P R K Q) | 0.00471
PRKQLATKAAR(Me2s)K[pS]APATGG [H3 16-35] | 0.00181
ARTKQTARKSTGGKAPRKQ (A R T K Q T A R Kme3 S T G G K A P R K Q) | 0.0029
[pS]GRGKQGGKARAK(Ac)AKSRSS [H2a 1-19] | 0.0906
ARTK(Me2)QTAR(Me2a)K(Me3)STGGKAPRKQ (reading uncertain) | 0.00181
